# Tested Target: T1, BcnI H77A+H219N (UniProt Q8RNV8 1-238, H77A;H219N)
# T1 sequence: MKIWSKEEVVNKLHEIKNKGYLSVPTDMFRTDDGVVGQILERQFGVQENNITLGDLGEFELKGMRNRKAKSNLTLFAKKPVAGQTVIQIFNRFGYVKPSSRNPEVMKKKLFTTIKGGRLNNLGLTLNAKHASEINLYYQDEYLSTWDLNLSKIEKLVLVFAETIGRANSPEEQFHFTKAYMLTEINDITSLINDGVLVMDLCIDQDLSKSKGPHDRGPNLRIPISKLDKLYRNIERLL
# Assay Summary: EMSA
Observed Property: pKd
Note on units: pKd is unitless, being -log10 of a concentration expressed in mol/L.

Quick one: pKd for CG oligoduplex (cognate) (dsDNA) DNA 1: CGCACGACTTCCCGGAAGAGCACGC DNA 2: GTTGCGTGCTCTTCCGGGAAGTCGTGCG ?
9.30
